system: JEG-3; assay: Primary qHTS to identify gynecologic anti-cancer compounds using libraries of approved drugs and bioactive compounds (AID 1345084); conditions: Gynecologic cancer cell panel viability, ATPlite luminescence, 48 h; series mostly up to 57.5 µM; also: nearly all actives have a fitted effect of over 55% in size
Results filed as inconclusive are left out. Activity calls are given as the source filed them. Calls follow the shape of the dose curve; as a rule, active = well fitted cell-killing curve with a large enough effect; inconclusive = small, poorly fitted or top-dose-only effect, or effect the other way; inactive = flat fitted curve, though single readings scatter.
Property: activity change, negative = cytotoxicity

Take a look at these entries with their results.
Compound	activity change, negative = cytotoxicity
Cn1cc(-c2ccc3c(c2)CCN3C(=O)Cc2cccc(C(F)(F)F)c2)c2c(N)ncnc21	inactive
COc1cc(C#N)ccc1S(=O)(=O)Nc1ccc2c(c1)cc(C)c(=O)n2C	inactive
Cc1cc(N2CCOCC2)ccc1Nc1nc(NC2CCCCC2)c2[nH]cnc2n1	inactive
CC[C@H]1OC(=O)[C@H](C)[C@@H](O[C@H]2C[C@@](C)(OC)[C@@H](O)[C@H](C)O2)[C@H](C)[C@@H](O[C@H]2O[C@H](C)C[C@H](N(C)C)[C@H]2O)[C@](C)(O)C[C@@H](C)C(=O)[C@H](C)[C@@H](O)[C@]1(C)O	inactive
COc1ccccc1N1CCN(c2ncnc3n[nH]c(Br)c23)CC1	inactive

*Q* Item CN(C)CCC(CSc1ccccc1)Nc1ccc(S(=O)(=O)NC(=O)c2ccc(N3CCN(Cc4ccccc4-c4ccc(Cl)cc4)CC3)cc2)cc1[N+](=O)[O-] (stereo not drawn) with JEG-3 - activity change, negative = cytotoxicity?
*A* inactive

*Q* Note, next up: "COc1cc(/C=C2\CCCN([C@@H](C)c3ccc(F)cc3)C2=O)ccc1-n1cnc(C)c1"
*A* inactive

*Q* Note, next up: "O=C(Nc1cc(C(F)(F)F)ccc1N1CCCCC1)c1ccncc1"
*A* inactive

*Q* Note, next up: "COc1cc(CN(CCN)C(=O)c2cccs2)ccc1OCc1ccccc1"
*A* inactive

*Q* Note, next up: "O=C(c1ccc(OC(F)F)c(C#Cc2ccccn2)c1)N1Cc2cccnc2C1"
*A* inactive

*Q* Note, next up: COC(=O)CC[C@@H](C)C1CCC2C3CCC4C[C@H](OC(C)=O)CCC4(C)C3C[C@H](O)C21C (stereo partly drawn)
*A* inactive

*Q* Note, next up: OC(CC1c2ccccc2-c2cncn21)C1CCCCC1 (stereo not drawn)
*A* inactive

*Q* Note, next up: Nc1nc(Nc2ccc3c(c2)CCC(N2CCCC2)CC3)nn1-c1cc2c(nn1)-c1ccccc1CCC2 (stereo not drawn)
*A* inactive

*Q* Note, next up: "Cn1cc(-c2ccc(F)c(C(F)(F)F)c2)nc1C1CCN(c2ncnc3[nH]ncc23)CC1"
*A* inactive

*Q* Note, next up: "O=C(NCCCN1CCC2(CC1)OCc1ccccc12)[C@H]1CCCN1Cc1ccccc1"
*A* inactive

*Q* Note, next up: "O=C(Nc1cc(C(F)(F)F)cc(C(F)(F)F)c1)c1cnc(Cl)nc1C(F)(F)F"
*A* inactive

*Q* Note, next up: "CC(C)C[C@@H](C(=O)N[C@@H](Cc1ccc(OCc2ccccc2)cc1)C(=O)NC(C)(C)C)N(C)Cc1ccc(C(C)(C)C)cc1"
*A* inactive
